- Target Of Assay: 1-phosphatidylinositol 4,5-bisphosphate phosphodiesterase gamma-1 (Homo sapiens) (UniProt P19174)
- Sequence (P19174 whole entry, looked up): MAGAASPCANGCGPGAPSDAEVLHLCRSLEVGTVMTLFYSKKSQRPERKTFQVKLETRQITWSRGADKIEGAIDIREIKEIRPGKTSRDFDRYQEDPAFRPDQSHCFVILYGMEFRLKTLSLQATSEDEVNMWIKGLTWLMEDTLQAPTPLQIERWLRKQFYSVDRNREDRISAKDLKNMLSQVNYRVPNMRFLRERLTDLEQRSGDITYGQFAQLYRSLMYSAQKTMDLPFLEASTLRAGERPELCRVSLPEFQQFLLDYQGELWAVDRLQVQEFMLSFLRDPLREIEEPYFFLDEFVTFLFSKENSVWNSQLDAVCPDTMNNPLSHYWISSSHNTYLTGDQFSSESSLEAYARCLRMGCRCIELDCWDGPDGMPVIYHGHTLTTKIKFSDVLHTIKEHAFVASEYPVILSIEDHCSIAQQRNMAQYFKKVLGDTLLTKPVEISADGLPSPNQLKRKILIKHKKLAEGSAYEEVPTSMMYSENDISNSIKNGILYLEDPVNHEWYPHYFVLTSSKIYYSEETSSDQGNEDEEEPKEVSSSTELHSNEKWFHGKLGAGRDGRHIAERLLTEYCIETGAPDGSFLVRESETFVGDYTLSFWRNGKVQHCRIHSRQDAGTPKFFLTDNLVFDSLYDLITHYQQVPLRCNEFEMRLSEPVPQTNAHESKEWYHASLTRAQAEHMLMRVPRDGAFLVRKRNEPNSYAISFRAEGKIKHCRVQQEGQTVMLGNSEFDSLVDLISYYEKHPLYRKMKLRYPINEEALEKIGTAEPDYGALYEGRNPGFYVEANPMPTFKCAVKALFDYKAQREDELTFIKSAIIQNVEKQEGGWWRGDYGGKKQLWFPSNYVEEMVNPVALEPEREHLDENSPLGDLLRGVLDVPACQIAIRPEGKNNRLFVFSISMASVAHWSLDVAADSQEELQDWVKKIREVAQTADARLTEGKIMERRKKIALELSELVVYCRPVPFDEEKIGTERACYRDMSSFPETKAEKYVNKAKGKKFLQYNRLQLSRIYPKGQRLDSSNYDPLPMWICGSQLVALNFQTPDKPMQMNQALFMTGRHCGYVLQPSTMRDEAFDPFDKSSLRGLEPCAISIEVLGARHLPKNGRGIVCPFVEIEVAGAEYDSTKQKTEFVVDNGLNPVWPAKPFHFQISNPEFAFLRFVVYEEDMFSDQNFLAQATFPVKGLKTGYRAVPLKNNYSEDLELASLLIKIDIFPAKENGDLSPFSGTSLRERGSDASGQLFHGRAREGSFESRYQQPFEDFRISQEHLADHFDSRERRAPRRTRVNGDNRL
- Assay Text: PLC-gamma1 enzyme inhibitors, counter-screen for PLC-beta3 inhibitor project, biochemical, fluorescence (AID 743258)
- Cond: purified PLC-gamma1, fluorogenic substrate, at 12.3 µM, hits give high values
Out of some 3,300 compounds screened, about 100 (3%) were called active. These entries were drawn from the full list.
Parameter inhibition: see the listing below.
Measurement Kind: inhibition (%)

>>> readout_number("CCOc1ccccc1NC(=O)CCN1CCN(S(=O)(=O)c2ccc(OC)cc2)CC1")
-1.14
>>> readout_number("COc1ccccc1CCNC(=O)CN1C(=O)NC2(CCCC2)C1=O")
5.92
>>> readout_number("Cc1ccc(Cn2ccc(NC(=O)C3C4CCC(C4)C3C(=O)O)n2)cc1 (stereo unspecified)")
6.33
>>> readout_number("Cc1ccc(C(=O)N2CCN(C(=O)N3CCOCC3)CC2)cc1")
-6.45
>>> readout_number("COc1ccc(/C(C)=N/N2CCOCC2)c(O)c1")
-16.2
>>> readout_number("COC(=O)CN1C(=O)C(O)=C(C(C)=O)C1c1ccc([N+](=O)[O-])cc1 (stereo unspecified)")
-0.28
>>> readout_number("O=C(C1CCCO1)N1CCN(C(=S)Nc2cccc(Cl)c2)CC1 (stereo unspecified)")
-5.73
>>> readout_number("O=C(C(c1ccccc1)c1ccccc1)N1CCN(CC(O)COc2ccccc2)CC1 (stereo unspecified)")
0.93
>>> readout_number("CCC1S/C(=N/N=C/c2ccco2)NC1=O (stereo unspecified)")
-2.12
>>> readout_number("COc1cc(OC)nc(S(C)(=O)=O)n1")
1.91
>>> readout_number("OC(CNCC1CCCO1)Cn1c2ccc(Br)cc2c2cc(Br)ccc21 (stereo unspecified)")
-8.03

* * *

- Target Of Assay: 1-phosphatidylinositol 4,5-bisphosphate phosphodiesterase gamma-1 (Homo sapiens)
- Assay Text: PLC-gamma1 enzyme inhibitors, counter-screen for PLC-beta3 inhibitor project, biochemical, fluorescence (AID 743258)
- Cond: purified PLC-gamma1, fluorogenic substrate, at 12.3 µM, hits give high values
About 100 (3%) of roughly 3,300 compounds were called active. The list is a sample of the results.
Entries and their measured inhibition follow.
Measurement Kind: inhibition (%)

>>> readout_number("CCc1c(Nc2ccccc2C)nc(N)[nH]c1=O")
0.72
>>> readout_number("Cc1cc(NC(=O)CN2C(=O)NC(CC(C)C)C2=O)no1 (stereo not given)")
-4.65
>>> readout_number("Cc1cccc([C@@H]2[C@@H]3C(=O)N(Cc4ccccc4)C(=O)[C@@H]3[C@]3(Cc4ccc(Cl)cc4)C(=O)N(c4cccc(Cl)c4)C(=O)N23)c1")
3.36
>>> readout_number("Cc1cc(NC(=O)c2ccc(F)cc2)ccc1NC(=O)c1ccco1")
-0.11
>>> readout_number("O=C(CSc1ncn[nH]1)N/N=C/c1ccc(F)cc1")
0.56

* * *

- Target Of Assay: 1-phosphatidylinositol 4,5-bisphosphate phosphodiesterase gamma-1 (Homo sapiens) (UniProt P19174)
- Assay Text: PLC-gamma1 enzyme inhibitors, counter-screen for PLC-beta3 inhibitor project, biochemical, fluorescence (AID 743258)
- Cond: purified PLC-gamma1, fluorogenic substrate, at 12.3 µM, hits give high values
Among all 3,300 compounds or so, about 100 (3%) were called active. A selection follows.
Listed next: entries and their corresponding inhibition.
Measurement Kind: inhibition (%)

>>> readout_number("CC(=O)c1c(C)[nH]c(C(=O)OCC(=O)Nc2cc(S(=O)(=O)N3CCCCC3)ccc2C)c1C")
-5.44
>>> readout_number("CCOC(=O)C1CCN(C(=O)c2ccccc2N(C)S(=O)(=O)c2ccccc2)CC1")
-3.46
>>> readout_number("O=S1(=O)c2ccc(Br)cc2OC[C@H](Cc2ccccc2)N1Cc1cn(Cc2ccccc2)nn1")
1.8
>>> readout_number("Cc1cc(NC(=O)COn2nnc3ccccc32)no1")
-0.28
>>> readout_number("Cc1cccc(NC(=O)c2ccc3c(=O)n(CC4CCCO4)c(=S)[nH]c3c2)c1 (stereo not given)")
-0.76
>>> readout_number("N#C[C@]1(S(=O)(=O)c2ccccc2)C[C@@H]2ON=C(c3cccc(Br)c3)[C@@H]2C1")
-2.59
>>> readout_number("C=CCn1c(SCn2nnc3ccccc3c2=O)nnc1-c1ccc(Cl)cc1")
-4
>>> readout_number("Cc1cc(C)c(NC(=O)CN2CCOCCOCCOCCOCC2)c(C)c1")
-2.06
>>> readout_number("COC(=O)N(C)C[C@@H]1OCc2cnnn2CCCC(=O)N([C@@H](C)CO)C[C@@H]1C")
-7.63
>>> readout_number("CC(C)CCSc1ncnc2c1oc1nc3c(cc12)COC(C)(C)C3")
-6.65

* * *

- Target Of Assay: 1-phosphatidylinositol 4,5-bisphosphate phosphodiesterase gamma-1 (Homo sapiens) (UniProt P19174)
- Assay Text: PLC-gamma1 enzyme inhibitors, counter-screen for PLC-beta3 inhibitor project, biochemical, fluorescence (AID 743258)
- Cond: purified PLC-gamma1, fluorogenic substrate, at 12.3 µM, hits give high values
Hit rate of the full screen: of about 3,300 compounds, about 100 (3%) were called active. The list is a sample of the results.
Measurement Kind: inhibition

>>> result("O=C(CSc1ccccc1)Nc1cccc(S(=O)(=O)N2CCOCC2)c1")
"3.57% (inactive)"
>>> result("CCN(CC)Cc1csc2ccc(Br)cc12")
"-2.99% (inactive)"
>>> result("C=CC1=C(C(=O)O)N2C(=O)[C@@H](NC(=O)/C(=N\\OCC(=O)O)c3csc(N)n3)[C@H]2SC1")
"88.6% (active)"
>>> result("CS(=O)(=O)N(Cc1ccc(Cl)cc1)c1ccc(C(=O)NCCSCc2ccco2)cc1")
"0.35% (inactive)"
>>> result("COc1ccc(CCNC(=O)COC(=O)Cc2ccccc2F)cc1")
"-5.86% (inactive)"
>>> result("COCc1cc(C(C)=O)ccc1OC")
"-2.07% (inactive)"
>>> result("CC(C)Cn1cnc2c1c(=O)n(CC(O)c1ccccc1)c(=O)n2CC(C)C (configuration not stated)")
"-3.61% (inactive)"
>>> result("Cc1ccc(/C=N/NC(=O)CSc2nc3ccccc3o2)cc1")
"-5.43% (inactive)"
>>> result("Nc1nnc(SCC(=O)OCc2ccc(Cl)c(Cl)c2)s1")
"-3.53% (inactive)"
>>> result("CC1(C)CC(=O)C=C(NCCN2CCNCC2)C1")
"-10.6% (inactive)"
>>> result("O=C(Nc1ccc(Br)cc1)C1CCC(=O)N1Cc1ccccc1Cl (configuration not stated)")
"-0.49% (inactive)"
>>> result("CCOC(=O)Nc1ccc(NC(=O)OCC)cc1")
"5.66% (inactive)"

* * *

- Target Of Assay: 1-phosphatidylinositol 4,5-bisphosphate phosphodiesterase gamma-1 (Homo sapiens) (UniProt P19174)
- Assay Text: PLC-gamma1 enzyme inhibitors, counter-screen for PLC-beta3 inhibitor project, biochemical, fluorescence (AID 743258)
- Cond: purified PLC-gamma1, fluorogenic substrate, at 12.3 µM, hits give high values
The campaign covered roughly 3,300 compounds. About 100 (3%) were called active. These entries were drawn from the full list.
Below is a list of entries, each paired with its recorded inhibition value.
Measurement Kind: inhibition (%)

>>> readout_number("CN(C)/C=C(/C(=O)c1ccc(Cl)cc1)S(=O)(=O)c1ccccc1")
-4.31
>>> readout_number("Cc1c(C#N)c2ncn(CC#N)c(=O)c2n1-c1ccccc1")
-8.35
>>> readout_number("O=c1c2ccccc2c(-c2ccccc2)nn1Cc1ccccc1")
-4.2
>>> readout_number("CN(CC(=O)Nc1ccccc1Cl)C(=O)COc1cccc2c1OC(C)(C)C2")
3.1
>>> readout_number("C=CCN(c1ccc(Cl)cc1)S(=O)(=O)c1cccc(C(=O)OCC(=O)N(C)C)c1")
-6.25
>>> readout_number("Cc1nc2ccccc2nc1CC(O)(c1ccccc1)c1ccccc1")
1.82

* * *

- Target Of Assay: 1-phosphatidylinositol 4,5-bisphosphate phosphodiesterase gamma-1 (Homo sapiens) (UniProt P19174)
- Assay Text: PLC-gamma1 enzyme inhibitors, counter-screen for PLC-beta3 inhibitor project, biochemical, fluorescence (AID 743258)
- Cond: purified PLC-gamma1, fluorogenic substrate, at 12.3 µM, hits give high values
Among all 3,300 compounds or so, about 100 (3%) were called active. The list is a sample of the results.
Measurement Kind: inhibition (%)

>>> readout_number("O=C(C[C@H]1C(=O)N(c2ccc(F)c(F)c2)C[C@@H]1Cc1ccccc1)Nc1ccccc1")
2.94
>>> readout_number("O=C1N[C@@H](c2ccccc2)COC(=O)[C@H](Cc2ccc(F)cc2)C/C=C\\C[C@@H]1CC(=O)N(CCO)Cc1ccccc1")
-2.05
>>> readout_number("Cc1ccc(N2CC(C(=O)NCCS(=O)(=O)N3CCN(c4ccccc4)CC3)CC2=O)cc1 (stereo unspecified)")
-3.74
>>> readout_number("CCOc1cccc(-c2nnc3sc(COc4ccc(OC)cc4)nn23)c1")
-4.31
>>> readout_number("FC(F)(F)c1cnc(Oc2ccccc2-c2nnc(-c3ccc(Cl)cc3)o2)c(Cl)c1")
-5.48
>>> readout_number("Clc1ccc(C2[C@H]3CN(CC4CCCCC4)[C@H](c4ccccc4)C34CC2(c2cccnc2)C4)cn1 (stereo partly specified)")
-4.79
>>> readout_number("CCOc1ccc(NC(=O)[C@H](C)NC(=O)C2CC(=O)N(c3ccc(OC)cc3)C2)cc1 (stereo partly specified)")
-8.84
>>> readout_number("O=C(NC12CC3CC(CC(C3)C1)C2)N1CCCC(CO)C1 (stereo unspecified)")
-3.42
>>> readout_number("Cc1cc2nc(SCCN3CCOCC3)[nH]c2cc1C")
-0.23
>>> readout_number("CCC[C@H]1CCCC/C=C\\CCCC(=O)OCCN1C(=O)OC(C)(C)C")
1.42
>>> readout_number("O=S(=O)(Nc1ccc(Oc2ncccn2)c(Cl)c1)c1ccc(F)cc1")
-6.2
>>> readout_number("COCCCN(C(=S)Nc1c(C)cc(C)cc1C)C(C)c1ccncc1 (stereo unspecified)")
-0.82
>>> readout_number("O=C(/C=C/c1c(F)cccc1Cl)Nc1nn[nH]n1")
-8.5
>>> readout_number("S=c1[nH]nc(-c2cccnc2)n1/N=C/C(Cl)=C\\c1ccccc1")
-4.71
>>> readout_number("O=C(c1ccc2c(c1)OCO2)N1CCNc2ccccc2C1")
-5.39
>>> readout_number("O=C(NCCCN1CCCCC1)C1CC(=O)N(CCc2ccccc2)C1 (stereo unspecified)")
0.03
>>> readout_number("CC(=O)C12CC(C)=C(C)CC1CC1C3CCC4=CC(=O)CCC4(C)C3CCC12C (stereo unspecified)")
-1.14
>>> readout_number("CN(C)S(=O)(=O)c1cccc(NC(=O)COC(=O)C2(c3ccccc3F)CCCC2)c1")
-1.97
>>> readout_number("COc1ccc(S(=O)(=O)N2CCC(C(=O)OCC(=O)c3ccccc3)CC2)cc1[N+](=O)[O-]")
8.79
>>> readout_number("CCOC(=O)[C@]12CCCC=C1N(CCCOC)C(=O)[C@@H]2CC(=O)N1CCOCC1")
-3.38
>>> readout_number("Cc1ccc(C23CC4CC(CC(C(=O)NCC(=O)O)(C4)C2)C3)cc1")
9.94
